- Tested on: TK-10 renal
- assay details: NCI tumour cell line growth inhibition, 48 h
TGI for assorted molecules

Previously resolved entries follow.
molecule | TGI
Cc1cc(NS(=O)(=O)c2ccc(NC(NC(=O)OC(C)C)(C(F)(F)F)C(F)(F)F)cc2)nc(C)n1 | > 100 µM
OCCn1c(-c2ccncc2)c(-c2ccc(F)cc2)c2ncccc21 | > 25 µM
Clc1ccc(N=CNc2ccc(-c3nc4ccccc4[nH]3)cc2)cc1 | > 100 µM
CC(C)C12CCC3(CCC4C(C)(C(=O)O)CCCC4(C)C3C1)C(CN)C2 (configuration not stated) | > 100 µM
CC1=C(C(=O)OC(C)(C)C)C(c2ccc([N+](=O)[O-])cc2)C(C(=O)OC(C)(C)C)=C(C)N1 | 38.1 µM

Moving on to the next molecule.
Please fill in: TGI reported for O=C1c2sccc2C(=O)c2c(CO)csc21 = 23 µM

###

- System: SR leukemia
- assay details: NCI tumour cell line growth inhibition, 48 h
test readout: TGI

compound | result
NS(=O)(=O)C1CCCCC1C(=O)NNC(=O)C(=O)Nc1nc(=S)[nH][nH]1 (stereo unspecified) | > 100 µM

Now let's try a different one.
get_value(item= Cn1c(=O)c(-c2c(Cl)cccc2Cl)cc2cnc(Nc3ccc(N4CCOCC4)cc3)nc21 , readout=TGI) returns 0.471 µM

###

- Tested on: PC-3 prostate
- assay details: NCI tumour cell line growth inhibition, 48 h
GI50 for assorted compounds

Recorded GI50, per entry:
item smiles | test readout | result
CS(=O)(=O)Nc1ccc(Nc2c3ccccc3nc3cc(Cl)ccc23)cc1 | GI50 | 2.47 µM
N#Cc1c(N)nc(N2CCOCC2)c(C#N)c1-c1ccc(Cl)cc1Cl | GI50 | 10.9 µM

Next compound, GI50 to be filled in.
Notebook: C/C(=N\NC(=O)c1ccncc1)c1ccccc1O , GI50 read as 8.66 µM

###

Below is a list of entries, each paired with its recorded TGI value.
- Tested on: COLO 205 colon
- assay details: NCI tumour cell line growth inhibition, 48 h

Here's what some known entries look like.
compound | result
CCc1nc2cc(F)ccc2[nH]c1=O | > 100 µM
C/C(=C\CNc1ncnc2c1ncn2CCC#N)CO | > 100 µM
CSC(=NCCCN=C(NS(=O)(=O)c1ccc(Cl)cc1)SC)NS(=O)(=O)c1ccc(Cl)cc1 | 51.6 µM
Cc1cccc(Cc2cnc(NC(=O)CCCOc3ccc(Cl)cc3)s2)c1 | > 100 µM
CC(=O)OC1CCC2(C)C(=CCC3C4CC(CN5CC5)C(=O)C4(C)CCC32)C1 (configuration not stated) | 12 µM
O=[N+]([O-])c1cccc(C2=NOC3CCCC23)c1 (configuration not stated) | > 100 µM
Cn1c(=O)c(Oc2ccc(F)cc2F)cc2cnc(NC3CCC(O)CC3)nc21 (configuration not stated) | > 25 µM
O=C(Nc1cccc(C(F)(F)F)c1)Nc1cc(S(=O)(=O)NC2CC2)ccc1-c1ccsc1 | 7.41 µM
ClCc1ccc(Cn2cnc3nc(Cl)nc(Cl)c32)cc1 | > 20.5 µM
CCCCCCCCCCCC1=C(O)C(=O)C=C(O)C1=O | 27.9 µM

# TGI of CCOP(=O)(OCC)/C(C#N)=C(\C)c1ccco1 = > 10 µM

TGI reading for Nc1cc(O)c2cc(N=Nc3ccc(N=Nc4ccc(N=Nc5ccc6cc(S(=O)(=O)O)cc(S(=O)(=O)O)c6c5)c5ccccc45)c4cc(S(=O)(=O)O)ccc34)c(S(=O)(=O)O)cc2c1 : > 100 µM

Sample CN1CCN(Cc2ccc(NC(=O)c3cncc(C#Cc4cnc5cccnn45)c3)cc2C(F)(F)F)CC1 ; TGI observed: 2.91 µM

Given item COC(=O)N/N=C(\c1nc2ccc(Cl)cc2[nH]c1=O)C(O)c1ccc([N+](=O)[O-])cc1 (configuration not stated) , the value recorded as its TGI is > 100 µM

Lab note: Nc1nc2c(ccc3ccccc32)[nH]1 gave TGI of > 10 µM

###

- System: EKVX NSCLC
- assay details: NCI tumour cell line growth inhibition, 48 h
test readout: TGI (µM)
Kindly answer with a numeric value in µM, unit omitted.

compound | test readout | number
Clc1ccc(N=CNc2ccc(-c3nc4ccccc4[nH]3)cc2)cc1 | TGI | 34.5

According to the records, this compound CCOC(=O)C(NC(=O)c1cccc(Cl)c1)(N1CCN(c2cc3c(cc2F)c(=O)c(C(=O)O)cn3CC)CC1)C(F)(F)F (centres undefined) displays TGI of 68.3

Value of TGI reported for the compound COc1cc2c(cc1OCCCN1CCN(CCCn3c4ccccc4c4ccccc43)CC1)N=C[C@@H]1CCCN1C2=O is 0.988

Value of measured TGI for the entry O=C(/C=C/N1CCN(c2cccc(Cl)c2)CC1)c1ccc(Cl)cc1 : 85.3

###

Reported TGI values for a set of molecules
- Tested on: DLD-1 colon
- assay details: NCI tumour cell line growth inhibition, 48 h

// worked examples, TGI included
molecule | TGI
COC(=O)C1=C(C)C(=O)C2(CCCCCC2C(=O)OC)C1 (stereo not drawn) | > 100 µM
CCNC(=O)O/N=C1/C=C2CC[C@@H]3C(CC[C@@]4(C)C3CC[C@@H]4OC(=O)NCC)[C@@]2(C)CC1 (stereo partly drawn) | > 100 µM
CC1CC2C(=O)N(c3ccccc3)C(=O)C2c2[nH]c3ccccc3c21 (stereo not drawn) | > 100 µM
CCCCCCCCCCCC1=C(O)C(=O)C=C(O)C1=O | 51.9 µM
O=C1COc2cc3c(cc2N1)SCC(=O)N3 | > 100 µM

Then there is this molecule:
Item: O=[N+]([O-])c1cccc2c1[nH]c1c(-c3ccccc3)nccc12 | System: DLD-1 colon | TGI: > 48.9 µM

###

- Tested on: ACHN renal
- assay details: NCI tumour cell line growth inhibition, 48 h; in the data active = GI50 below about 0.43 µM; inactive = the rest
Answer with one of the outcomes 1 (yes) = active, 0 (no) = inactive

compound | cat
Cn1c(=O)c(Oc2ccc(F)cc2F)cc2cnc(NC3CCC(O)CC3)nc21 (stereo unspecified) | 0 (no)
O=C(COC(=O)[C@H](C[Se][Se]C[C@H](NC(=O)c1ccc(Br)cc1F)C(=O)OCC(=O)c1ccc(F)cc1)NC(=O)c1ccc(Br)cc1F)c1ccc(F)cc1 | 0 (no)
CCC(=C(c1ccc(OCCN(CC)CC)cc1)c1ccc(OCCN(CC)CC)cc1)c1ccc(Cl)cc1 | 0 (no)

GET /call?item= CN1CCN(Cc2ccc(NC(=O)c3cncc(C#Cc4cnc5cccnn45)c3)cc2C(F)(F)F)CC1 returns the recorded outcome of this test.
0 (no)

Would you mind telling me which call this test gave O=C(Nc1cccc(C(F)(F)F)c1)Nc1cc(S(=O)(=O)NC2CC2)ccc1-c1ccsc1 ?
0 (no)

Which outcome was assigned to Cc1c(N)nc(C2CC(=O)N2CC(N)C(N)=O)nc1C(=O)NC(C(=O)NC(C)C(O)C(C)C(=O)NC(C(=O)NCCc1nc(-c2nc(C(=O)NCCNCC(C)O)cs2)cs1)C(C)O)C(OC1OC(CO)C(O)C(O)C1OC1OC(CO)C(O)C(OC(N)=O)C1O)c1cnc[nH]1 (stereo unspecified) in this test?
1 (yes)

###

- Tested on: OVCAR-3 ovarian
- assay details: NCI tumour cell line growth inhibition, 48 h; in the data active = GI50 below about 0.43 µM; inactive = the rest
Please reply with one of these outcomes: 1 (yes) = active, 0 (no) = inactive

Please review the entries below; each comes with its answer.
item smiles | cat
O=C(/C=C/N1CCN(c2cccc(Cl)c2)CC1)c1ccc(Cl)cc1 | 0 (no)
O=C(NCc1cccnc1)c1ccc([N+](=O)[O-])o1 | 0 (no)
COc1cc2c(cc1OCCCN1CCN(CCCn3c4ccccc4c4ccccc43)CC1)N=C[C@@H]1CCCN1C2=O | 1 (yes)
CS(=O)(=O)Nc1ccc(Nc2c3ccccc3nc3cc(Cl)ccc23)cc1 | 0 (no)
N#Cc1c(N/N=C/c2c(Cl)cccc2Cl)nc(N)nc1N1CCCC1 | 0 (no)

For the next question, use this molecule.
What did this assay record as the result for COc1ccc(-c2ccc(/C=N/n3c(COc4ccc(Cl)c(C)c4)nn(CN4CCOCC4)c3=S)o2)c([N+](=O)[O-])c1 ?
0 (no)

###

- System: RXF 393 renal
- assay details: NCI tumour cell line growth inhibition, 48 h
test readout: TGI (µM)
Field format: number, assumed µM, no unit text.

As a guide, the following entries are already answered.
compound | number
O=C(Nc1cccc(C(F)(F)F)c1)Nc1cc(S(=O)(=O)NC2CC2)ccc1-c1ccsc1 | 18.8
O=C(c1ccccc1)c1ccc(N2C(=O)C3C4c5ccccc5C(/C=C/C(=O)c5ccccn5)(c5ccccc54)C3C2=O)cc1 (centres undefined) | 3.07
CC(=O)Oc1cc(OC(C)=O)c2c(c1C)CC[C@@H]1[C@@H]2CC[C@]2(C)[C@@H](OC(C)=O)CC[C@@H]12 | 27.7

Summary: CCNc1nc(-c2ccc(Cl)c(OC)c2)c(-c2ccnc(NCCNS(=O)(=O)c3ccc(Cl)cc3)n2)s1 , RXF 393 renal, TGI = 5.1

Short answer on RXF 393 renal for Cc1c(N(Cc2ccccc2)Cc2ccccc2)nc(S(C)(=O)=O)nc1S(C)(=O)=O , TGI: 3.1

Measured TGI (RXF 393 renal), entry COc1ccc(-c2ccc(/C=N/n3c(COc4ccc(Cl)c(C)c4)nn(CN4CCOCC4)c3=S)o2)c([N+](=O)[O-])c1 : 52.7

The observed TGI for CC(=O)OC1C(C)OC(OC2C[C@](O)(C(C)=O)Cc3c(O)c4c(c(O)c32)C(=O)c2ccccc2C4=O)C(F)C1OC(C)=O (some centres undefined) when tested with RXF 393 renal stands at 18.9

Assay RXF 393 renal, sample COc1cc(-c2nn(-c3cccc(NC(=O)c4cccc(C(F)(F)F)c4)c3)cc2-c2ccncc2)ccc1Cl , TGI read: 3.15

Sample N#Cc1c(N)nc(N2CCOCC2)c(C#N)c1-c1ccc(Cl)cc1Cl , system: RXF 393 renal. Its TGI is 38.4

Entry O=C1Cc2c(-c3ccccc3)cc(-c3ccc(Cl)cc3)nc2-c2ccccc2N1 , RXF 393 renal data, TGI value: 17.3
